Origin of values: ChEMBL document CHEMBL1123383

- Experimental Target: Dopamine beta-hydroxylase (Bos taurus, UniProt P15101)
- Measurement Notes: Compound was evaluated for the inhibition of Dopamine beta hydroxylase at pH 6.6

{"columns": ["Molecular String", "Experimental Target", "Units Symbol", "Ki"],
 "data": [
  ["Cn1cc[nH]c1=S", "Dopamine beta-hydroxylase (Bos taurus, UniProt P15101)", "µM", 716]
]}

---

In this section, each of the molecules is paired with its reported inhibition.
- Experimental Target: Dopamine beta-hydroxylase (Bos taurus) (UniProt P15101)
- Sequence (P15101 whole entry): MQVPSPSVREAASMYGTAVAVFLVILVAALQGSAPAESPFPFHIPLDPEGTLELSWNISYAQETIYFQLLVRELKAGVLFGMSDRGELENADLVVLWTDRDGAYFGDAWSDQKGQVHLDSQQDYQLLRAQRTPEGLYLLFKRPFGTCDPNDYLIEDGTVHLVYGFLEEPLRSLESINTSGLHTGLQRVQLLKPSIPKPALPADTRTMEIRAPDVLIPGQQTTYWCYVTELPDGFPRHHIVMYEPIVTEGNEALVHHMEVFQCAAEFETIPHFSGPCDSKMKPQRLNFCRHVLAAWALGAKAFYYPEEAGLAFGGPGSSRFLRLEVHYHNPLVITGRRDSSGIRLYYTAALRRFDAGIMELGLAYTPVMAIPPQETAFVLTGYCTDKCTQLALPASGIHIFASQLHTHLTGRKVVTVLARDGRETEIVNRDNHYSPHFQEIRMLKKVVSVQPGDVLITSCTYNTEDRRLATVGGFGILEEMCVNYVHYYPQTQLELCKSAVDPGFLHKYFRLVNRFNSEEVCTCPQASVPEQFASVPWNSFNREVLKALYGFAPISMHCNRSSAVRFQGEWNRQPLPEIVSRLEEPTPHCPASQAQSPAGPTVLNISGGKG
- Measurement Notes: Inhibition of Dopamine beta hydroxylase at a concentration of 10e-4 M.

{"columns": ["Molecule", "Experimental Target", "inhibition"],
 "data": [
  ["NC(=O)C(c1ccccc1)n1ccnc1S (stereo unspecified)", "Dopamine beta-hydroxylase (Bos taurus) (UniProt P15101)", "4%"],
  ["COc1ccc(-n2ccnc2S)cc1", "Dopamine beta-hydroxylase (Bos taurus) (UniProt P15101)", "25%"],
  ["Oc1ccc(CCCCn2ccnc2S)cc1", "Dopamine beta-hydroxylase (Bos taurus) (UniProt P15101)", "12%"],
  ["OC(Cc1ccccc1)Cn1ccnc1S (stereo unspecified)", "Dopamine beta-hydroxylase (Bos taurus) (UniProt P15101)", "5%"],
  ["O=S(=O)(CCn1ccnc1S)c1ccccc1", "Dopamine beta-hydroxylase (Bos taurus) (UniProt P15101)", "5%"],
  ["NCC(c1ccccc1)n1ccnc1S (stereo unspecified)", "Dopamine beta-hydroxylase (Bos taurus) (UniProt P15101)", "0%"]
]}
